- system: T1, recombinant human soluble gpNMB (recombinant human gpNMB-FLAG-His) (human, UniProt Q14956 23-498)
- T1 sequence: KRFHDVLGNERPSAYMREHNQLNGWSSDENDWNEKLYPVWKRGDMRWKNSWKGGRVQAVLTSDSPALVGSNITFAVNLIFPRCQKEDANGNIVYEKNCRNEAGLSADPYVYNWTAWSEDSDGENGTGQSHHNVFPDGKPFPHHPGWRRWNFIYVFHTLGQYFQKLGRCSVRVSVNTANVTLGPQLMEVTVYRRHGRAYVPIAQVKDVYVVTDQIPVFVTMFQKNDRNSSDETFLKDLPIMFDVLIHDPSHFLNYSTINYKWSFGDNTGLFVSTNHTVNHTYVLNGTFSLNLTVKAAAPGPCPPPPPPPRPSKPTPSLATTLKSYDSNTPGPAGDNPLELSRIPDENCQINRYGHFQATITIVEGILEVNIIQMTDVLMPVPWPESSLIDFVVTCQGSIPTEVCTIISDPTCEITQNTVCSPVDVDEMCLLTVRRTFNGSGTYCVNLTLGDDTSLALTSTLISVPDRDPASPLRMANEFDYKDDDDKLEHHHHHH
- assay_info: antigen ELISA
pEC50: −log10 of the molar value.

binder: hGPN06-1_H1L1 VH T58A (antibody, V domains shown) VH: QVQLVQSGAEVKKPGASVKVSCKASGYTFTDNWMGWVKQRPGQGLEWIGAIDPSDSFANYNQNFKGRVTMTVDTSISTAYMELSRLRSDDSAVYFCTRSGYYGSPKLGGDYWGQGTLVTVSS VL: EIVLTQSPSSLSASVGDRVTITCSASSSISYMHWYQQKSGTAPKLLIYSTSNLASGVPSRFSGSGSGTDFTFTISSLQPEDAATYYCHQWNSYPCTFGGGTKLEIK
pEC50: 7.55
//
binder: hGPN06-1_H1L1 VH N61A (antibody, V domains shown) VH: QVQLVQSGAEVKKPGASVKVSCKASGYTFTDNWMGWVKQRPGQGLEWIGAIDPSDSFTNYAQNFKGRVTMTVDTSISTAYMELSRLRSDDSAVYFCTRSGYYGSPKLGGDYWGQGTLVTVSS VL: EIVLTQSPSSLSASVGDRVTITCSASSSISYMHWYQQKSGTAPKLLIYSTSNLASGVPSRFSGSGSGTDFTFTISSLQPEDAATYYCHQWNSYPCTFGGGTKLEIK
pEC50: 7.58
//
binder: hGPN06-1_H1L1 (antibody, V domains shown, humanized; also called humanized anti-gpNMB antibody H1L1) VH: QVQLVQSGAEVKKPGASVKVSCKASGYTFTDNWMGWVKQRPGQGLEWIGAIDPSDSFTNYNQNFKGRVTMTVDTSISTAYMELSRLRSDDSAVYFCTRSGYYGSPKLGGDYWGQGTLVTVSS VL: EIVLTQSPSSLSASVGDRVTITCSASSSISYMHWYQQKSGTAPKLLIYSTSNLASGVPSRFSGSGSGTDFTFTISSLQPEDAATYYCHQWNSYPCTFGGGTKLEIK
pEC50: 8.70
//
binder: hGPN06-1_H1L1 VH W33A (antibody, V domains shown) VH: QVQLVQSGAEVKKPGASVKVSCKASGYTFTDNAMGWVKQRPGQGLEWIGAIDPSDSFTNYNQNFKGRVTMTVDTSISTAYMELSRLRSDDSAVYFCTRSGYYGSPKLGGDYWGQGTLVTVSS VL: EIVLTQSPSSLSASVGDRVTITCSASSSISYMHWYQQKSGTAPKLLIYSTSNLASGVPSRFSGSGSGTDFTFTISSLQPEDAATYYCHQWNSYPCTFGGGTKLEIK
pEC50: 7.55
//
binder: hGPN06-1_H1L1 VH N59A (antibody, V domains shown) VH: QVQLVQSGAEVKKPGASVKVSCKASGYTFTDNWMGWVKQRPGQGLEWIGAIDPSDSFTAYNQNFKGRVTMTVDTSISTAYMELSRLRSDDSAVYFCTRSGYYGSPKLGGDYWGQGTLVTVSS VL: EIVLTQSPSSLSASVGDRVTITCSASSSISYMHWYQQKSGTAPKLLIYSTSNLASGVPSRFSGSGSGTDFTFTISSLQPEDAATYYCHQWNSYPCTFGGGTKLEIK
pEC50: 7.53
//
binder: hGPN06-1_H1L1 VH S56A (antibody, V domains shown) VH: QVQLVQSGAEVKKPGASVKVSCKASGYTFTDNWMGWVKQRPGQGLEWIGAIDPSDAFTNYNQNFKGRVTMTVDTSISTAYMELSRLRSDDSAVYFCTRSGYYGSPKLGGDYWGQGTLVTVSS VL: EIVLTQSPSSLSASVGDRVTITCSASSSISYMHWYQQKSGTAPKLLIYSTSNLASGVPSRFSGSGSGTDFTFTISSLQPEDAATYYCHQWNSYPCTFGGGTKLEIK
pEC50: 9.37
//
binder: hGPN06-1_H1L1 VH K65A (antibody, V domains shown) VH: QVQLVQSGAEVKKPGASVKVSCKASGYTFTDNWMGWVKQRPGQGLEWIGAIDPSDSFTNYNQNFAGRVTMTVDTSISTAYMELSRLRSDDSAVYFCTRSGYYGSPKLGGDYWGQGTLVTVSS VL: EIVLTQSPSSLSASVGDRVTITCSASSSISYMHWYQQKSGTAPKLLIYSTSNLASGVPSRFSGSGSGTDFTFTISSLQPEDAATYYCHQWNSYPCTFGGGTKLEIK
pEC50: 9.39
//
binder: hGPN06-1_H1L1 VH G26A (antibody, V domains shown) VH: QVQLVQSGAEVKKPGASVKVSCKASAYTFTDNWMGWVKQRPGQGLEWIGAIDPSDSFTNYNQNFKGRVTMTVDTSISTAYMELSRLRSDDSAVYFCTRSGYYGSPKLGGDYWGQGTLVTVSS VL: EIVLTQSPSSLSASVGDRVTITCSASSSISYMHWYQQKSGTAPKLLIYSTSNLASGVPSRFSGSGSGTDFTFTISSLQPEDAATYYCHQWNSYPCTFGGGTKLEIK
pEC50: 8.92
//
binder: hGPN06-1_H1L1 VH F29A (antibody, V domains shown) VH: QVQLVQSGAEVKKPGASVKVSCKASGYTATDNWMGWVKQRPGQGLEWIGAIDPSDSFTNYNQNFKGRVTMTVDTSISTAYMELSRLRSDDSAVYFCTRSGYYGSPKLGGDYWGQGTLVTVSS VL: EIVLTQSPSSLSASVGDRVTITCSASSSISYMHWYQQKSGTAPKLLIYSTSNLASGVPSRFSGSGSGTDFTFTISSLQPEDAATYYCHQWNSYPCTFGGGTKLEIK
pEC50: 8.32
//
binder: hGPN06-1_H1L1 VH D52A (antibody, V domains shown) VH: QVQLVQSGAEVKKPGASVKVSCKASGYTFTDNWMGWVKQRPGQGLEWIGAIAPSDSFTNYNQNFKGRVTMTVDTSISTAYMELSRLRSDDSAVYFCTRSGYYGSPKLGGDYWGQGTLVTVSS VL: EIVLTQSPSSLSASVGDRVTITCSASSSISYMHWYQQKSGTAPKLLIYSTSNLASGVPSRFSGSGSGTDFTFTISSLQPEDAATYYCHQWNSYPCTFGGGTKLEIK
pEC50: 8.55
